The measured values listed here are drawn from paper PMC7556464.

Each record here notes measured pKd.
- target: T1, factor H binding protein (fHbp) variant 3.28, recombinant (Neisseria meningitidis M1239, fHbp v3.28, UniProt Q19KF7, strain)
- T1 construct: also called fHbp v3.28; fHbp v3; source: E. coli BL21(DE3), purified (Ni-NTA, SEC when necessary)
- experimental protocol: SPR
- condition info: both partners purified
Recall that pKd is obtained by taking minus log10 of the concentration measured in molar.

Below, 2 binders whose answers are already recorded.
// lookup pKd for human anti-fHbp mAb 5F12 (antibody, V domains shown, IgG1; source: Expi293, transient transfection, purified (protein G Sepharose)) VH: EVQLVESGGDLVKPGGSLRLSCAASGFTFSNYTMNWVRQAPGKGLEWVSSITSSSSFKYYADSVKGRFTISRDNAKNSVFLQMNSLRAEDTAIYYCARRIDSSDQDWFYYYGMDVWGLGTTVTVSS VL: QSVLTQPPSVSAAPGQRVTISCSGSSSNIGDNYISWYQQLPGTAPKLLIYDNDQRPSGTPDRFSASKSGTSATLGVTGLQTGDEADYYCGTWDSSLNAPVFGSGTKVTVL
8.76

// lookup pKd for human anti-fHbp mAb 1D1 (antibody, V domains shown, IgG1; source: Expi293, transient transfection, purified (protein G Sepharose)) VH: QVQLVGSGGGLVKPGGSLRLSCAASGFTFSSYTMNWVRQAPGKGLEWVSSISSSSGYIYYADSLKGRFTISRDDAKNSLFLQMNSLRAEDTAVYFCARDKVLPAPPGFYGLDVWGPGTTVTVSS VL: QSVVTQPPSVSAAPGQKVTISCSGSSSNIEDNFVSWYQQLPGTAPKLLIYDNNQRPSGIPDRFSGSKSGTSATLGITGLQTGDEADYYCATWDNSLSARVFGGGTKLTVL
8.76

Others:
// lookup pKd for human anti-fHbp mAb 3F1 (antibody, V domains shown, IgG1; source: Expi293, transient transfection, purified (protein G Sepharose)) VH: EVHLVESGGGLVKPGGSLRLSCAASGFTFSSYTMNWVRQAPGKGLEWVSSISSSSGYIYYADSLKGRFTISRDNAKNSLFLQMNSLRAEDTAVYFCARDKVLPAPPGFYGLDVWGPGTTVTVSS VL: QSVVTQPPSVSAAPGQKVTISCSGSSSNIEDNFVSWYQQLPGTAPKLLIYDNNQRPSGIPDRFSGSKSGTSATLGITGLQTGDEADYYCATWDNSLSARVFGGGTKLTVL
8.74

// lookup pKd for human anti-fHbp mAb 4B10 (antibody, V domains shown, IgG1; source: Expi293, transient transfection, purified (protein G Sepharose)) VH: EVQLVESGGGLVKPGGSLRLSCAASGFAFSTYSLHWVRQAPGKGLEWVSAITSSGSFLYYADSLKGRFTVSRDNAKNSLFLQMNSLRAGDTAVYYCARALQVEDGFPMFSGLDVWGQGTTVTVSS VL: QTVVTQPPSVSEAPRQRVAISCSGSSSNIGDNSVSWYQQLPGKAPKLLIYDDDLLPSGVSDRFSASKSGTSASLAISGLQSEDEAEYYCAAWDDSLKGVVFGGGTKLTVL
8.78

// lookup pKd for human anti-fHbp mAb 3B7 (antibody, V domains shown, source: Expi293, transient transfection, purified (protein G Sepharose)) VH: EVQLVQSGAEVKKPGSSVKVSCKASGDTFSNYPISWVRQAPGQGLEWMGGIIPIFGTANYAQKFQGRVTITADESTSTPYMELSSLRSEDTAVYYCARGDTAMAPFDYWGQGTLVTVSS VL: SYVLTQPPSVSVAPGKTARITCGGNSIGSKSVHWYQQKPGQAPVLVIYYDSDRPSGVPERISGSNSGNTATLTISRVEAGDEADYYCQVWDSSSDSWVFGGGTKLTVL
8.66

// lookup pKd for human anti-fHbp mAb 4F9 (antibody, V domains shown, IgG1; source: Expi293, transient transfection, purified (protein G Sepharose)) VH: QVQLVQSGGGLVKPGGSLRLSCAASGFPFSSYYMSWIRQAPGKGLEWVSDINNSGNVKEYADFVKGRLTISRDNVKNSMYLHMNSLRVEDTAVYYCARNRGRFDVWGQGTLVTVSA VL: EIVMTQSPGTLSLSPGETATLSCRASQMISSPFLAWYQQRRGQAPRLLIYGASTRATDTPDRFRGSGSGTDFILTISRLEPEDFAVYYCQHYDDSPFTFGQGTKLEIK
9.62
